- MEASURED ON: Serine/threonine-protein kinase mTOR (Homo sapiens, UniProt P42345)
- EXPERIMENTAL PROTOCOL: Inhibition of human mTOR by DELFIA assay
OBSERVABLE: pIC50
One number for each entry, as −log10 of the molar value.

MOLECULE	pIC50
O=C(c1cccnc1)N1CCC(n2ncc3c(N4CCOCC4)nc(-c4cccc(O)c4)nc32)CC1	8.22
O=c1[nH]c2ccc(-c3nc(N4CCOCC4)c4cnn(C5CCN(Cc6ccccc6)CC5)c4n3)cc2[nH]1	6.72
c1cncc(CN2CCC(n3ncc4c(N5CCOCC5)nc(-c5ccc6[nH]ccc6c5)nc43)CC2)c1	8.05
Oc1cccc(-c2nc(N3CCOCC3)c3cnn(C4CCN(Cc5cccnc5)CC4)c3n2)c1	8.00
Oc1cccc(-c2nc(N3CCOCC3)c3cnn(C4CCN(Cc5ccccc5)CC4)c3n2)c1	7.11
c1ccc(CN2CCC(n3ncc4c(N5CCOCC5)nc(-c5cccc6cc[nH]c56)nc43)CC2)cc1	6.42
c1ccc(CN2CCC(n3ncc4c(N5CCOCC5)nc(-c5cccc6[nH]ccc56)nc43)CC2)cc1	6.84
c1ccc(CN2CCC(n3ncc4c(N5CCOCC5)nc(-c5ccncc5)nc43)CC2)cc1	5.14

State the recorded pIC50 for every item in the following list.
1. c1ccc(CN2CCC(n3ncc4c(N5CCOCC5)nc(-c5ccc6[nH]ccc6c5)nc43)CC2)cc1
2. c1ccc(CN2CCC(n3ncc4c(N5CCOCC5)nc(-c5cnc6ccccc6c5)nc43)CC2)cc1

Ans:
1: 7.06; 2: 6.92

State the recorded pIC50 for every item in the following list.
1. c1ccc(CN2CCC(n3ncc4c(N5CCOCC5)nc(-c5ccc6ncccc6c5)nc43)CC2)cc1
2. c1ccc(CN2CCC(n3ncc4c(N5CCOCC5)nc(-c5cccnc5)nc43)CC2)cc1

Ans:
[5.23, 6.16]

###

- MEASURED ON: Serine/threonine-protein kinase mTOR (Homo sapiens)
- EXPERIMENTAL PROTOCOL: Inhibition of human mTOR by DELFIA assay
Exercise: for every item that follows, state its recorded IC50.
One number for each entry, in µM.

MOLECULE	MEASURED ON	OBSERVABLE	VALUE MEASURED
c1cc2cc(-c3nc(N4CCOCC4)c4cnn(C5CCNCC5)c4n3)ccc2[nH]1	Serine/threonine-protein kinase mTOR (Homo sapiens)	IC50	0.17

State the recorded IC50 for every item in the following list.
1. c1ccc(CN2CCC(n3ncc4c(N5CCOCC5)nc(-c5ccc6cc[nH]c6c5)nc43)CC2)cc1
2. O=C(c1cccnc1)N1CCC(n2ncc3c(N4CCOCC4)nc(-c4ccc5[nH]ccc5c4)nc32)CC1
3. CC(=O)N1CCC(n2ncc3c(N4CCOCC4)nc(-c4cccc(O)c4)nc32)CC1
4. c1ccc(CN2CCC(n3ncc4c(N5CCOCC5)nc(-c5cc6ccccc6[nH]5)nc43)CC2)cc1
5. Oc1ccc(-c2nc(N3CCOCC3)c3cnn(C4CCN(Cc5ccccc5)CC4)c3n2)cc1
6. O=C(c1ccccc1)N1CCC(n2ncc3c(N4CCOCC4)nc(-c4cccc(O)c4)nc32)CC1
7. Oc1cccc(-c2nc(N3CCOCC3)c3cnn(C4CCNCC4)c3n2)c1
8. Oc1ccccc1-c1nc(N2CCOCC2)c2cnn(C3CCN(Cc4ccccc4)CC3)c2n1

Ans:
0.23
0.004
0.049
0.13
0.17
0.004
0.215
1.27
